Test system: Actinobacillus pleuropneumoniae CVCC262
Experiment: in vitro susceptibility, MIC by mini broth dilution
Type: cell-based
Measurement Setup: strain CVCC262
Measurement Type: MIC values, Actinobacillus pleuropneumoniae CVCC262 (ug/mi)
Enter your answer as a number in ug/mi; do not include the unit.

Prompt: Give a short answer stating reported MIC values, Actinobacillus pleuropneumoniae CVCC262 for CCCN1C[C@H](C)[C@@H](O)[C@](C)(O)[C@@H](CC)OC(=O)[C@H](C)[C@@H](O[C@H]2C[C@@](C)(OC)[C@](O)(CN(C)CCO)[C@H](C)O2)[C@H](C)[C@@H](O[C@@H]2O[C@H](C)C[C@H](N(C)C)[C@H]2O)[C@](C)(O)C[C@H]1C [syzx-239] .
Completion: 4

Next molecule, please.
Prompt: Please indicate MIC values, Actinobacillus pleuropneumoniae CVCC262 recorded for CCCN1C[C@H](C)[C@@H](O)[C@](C)(O)[C@@H](CC)OC(=O)[C@H](C)[C@@H](O[C@H]2C[C@@](C)(OC)[C@](O)(CNc3ccnc(Cl)c3)[C@H](C)O2)[C@H](C)[C@@H](O[C@@H]2O[C@H](C)C[C@H](N(C)C)[C@H]2O)[C@](C)(O)C[C@H]1C
Completion: 2

###

Test system: Pasteurella multocida CVCC399
Experiment: in vitro susceptibility, MIC by mini broth dilution
Format: cell-based
Measurement Setup: strain CVCC399
Measurement Type: MIC values, Pasteurella multocida CVCC399 (ug/mi)
Response body: numeric value in ug/mi, unit text excluded.

Prompt: Look up and report measured MIC values, Pasteurella multocida CVCC399 for this entry: CCCN1C[C@H](C)[C@@H](O)[C@](C)(O)[C@@H](CC)OC(=O)[C@H](C)[C@@H](O[C@H]2C[C@@](C)(OC)[C@](O)(CNc3ccc(I)cc3)[C@H](C)O2)[C@H](C)[C@@H](O[C@@H]2O[C@H](C)C[C@H](N(C)C)[C@H]2O)[C@](C)(O)C[C@H]1C
Completion: 8

Continuing:
Prompt: Answer with the recorded MIC values, Pasteurella multocida CVCC399 of CCCN1C[C@H](C)[C@@H](O)[C@](C)(O)[C@@H](CC)OC(=O)[C@H](C)[C@@H](O[C@H]2C[C@@](C)(OC)[C@](O)(CNCc3ccc(F)c(F)c3)[C@H](C)O2)[C@H](C)[C@@H](O[C@@H]2O[C@H](C)C[C@H](N(C)C)[C@H]2O)[C@](C)(O)C[C@H]1C only.
Completion: 0.5

###

MIC values, Pasteurella multocida CVCC399 overview
System: Pasteurella multocida CVCC399
Experiment: in vitro susceptibility, MIC by mini broth dilution
Format: cell-based
Measurement Setup: strain CVCC399
# output: bare number, implied unit ug/mi

Reference set (6 entries):
Prompt: Supply measured MIC values, Pasteurella multocida CVCC399 of CCCN1C[C@H](C)[C@@H](O)[C@](C)(O)[C@@H](CC)OC(=O)[C@H](C)[C@@H](O[C@H]2C[C@@](C)(OC)[C@](O)(CNCCCO)[C@H](C)O2)[C@H](C)[C@@H](O[C@@H]2O[C@H](C)C[C@H](N(C)C)[C@H]2O)[C@](C)(O)C[C@H]1C [syzx-146] in your reply.
Completion: 0.5

Prompt: Name the recorded MIC values, Pasteurella multocida CVCC399 of the item CCCN1C[C@H](C)[C@@H](O)[C@](C)(O)[C@@H](CC)OC(=O)[C@H](C)[C@@H](O[C@H]2C[C@@](C)(OC)[C@](O)(CNc3cc(F)ccc3[N+](=O)[O-])[C@H](C)O2)[C@H](C)[C@@H](O[C@@H]2O[C@H](C)C[C@H](N(C)C)[C@H]2O)[C@](C)(O)C[C@H]1C [syzx-226] in your answer.
Completion: 8

Prompt: Read the entry CC[C@H]1OC(=O)[C@H](C)[C@@H](O[C@H]2C[C@@](C)(OC)[C@](O)(C=NNc3ccccc3)[C@H](C)O2)[C@H](C)[C@@H](O[C@@H]2O[C@H](C)C[C@H](N(C)C)[C@H]2O)[C@](C)(O)C[C@@H](C)NC[C@H](C)[C@@H](O)[C@]1(C)O [syzx-73] and write its reported MIC values, Pasteurella multocida CVCC399.
Completion: 2

Prompt: Give MIC values, Pasteurella multocida CVCC399 for the following molecule: CCC(CO)NC[C@]1(O)[C@H](C)O[C@@H](O[C@H]2[C@H](C)[C@@H](O[C@@H]3O[C@H](C)C[C@H](N(C)C)[C@H]3O)[C@](C)(O)C[C@@H](C)NC[C@H](C)[C@@H](O)[C@](C)(O)[C@@H](CC)OC(=O)[C@@H]2C)C[C@@]1(C)OC (stereo partly shown) [syzx-51]
Completion: 0.5

Prompt: Determine from records and report MIC values, Pasteurella multocida CVCC399 for CCCN1C[C@H](C)[C@@H](O)[C@](C)(O)[C@@H](CC)OC(=O)[C@H](C)[C@@H](O[C@H]2C[C@@](C)(OC)[C@](O)(CNc3ccc(C)c(C)c3)[C@H](C)O2)[C@H](C)[C@@H](O[C@@H]2O[C@H](C)C[C@H](N(C)C)[C@H]2O)[C@](C)(O)C[C@H]1C [syzx-184]
Completion: 4

Prompt: Please give the documented MIC values, Pasteurella multocida CVCC399 of CC[C@H]1OC(=O)[C@H](C)[C@@H](O[C@H]2C[C@@](C)(OC)[C@](O)(CNCC(O)c3ccccc3)[C@H](C)O2)[C@H](C)[C@@H](O[C@@H]2O[C@H](C)C[C@H](N(C)C)[C@H]2O)[C@](C)(O)C[C@@H](C)NC[C@H](C)[C@@H](O)[C@]1(C)O (stereo partly shown) [syzx-52]
Completion: 0.5

Next, consider the following molecule.
Prompt: Assign MIC values, Pasteurella multocida CVCC399 to the following record: CCCN1C[C@H](C)[C@@H](O)[C@](C)(O)[C@@H](CC)OC(=O)[C@H](C)[C@@H](O[C@H]2C[C@@](C)(OC)[C@](O)(CNCc3cccnc3)[C@H](C)O2)[C@H](C)[C@@H](O[C@@H]2O[C@H](C)C[C@H](N(C)C)[C@H]2O)[C@](C)(O)C[C@H]1C [syzx-121]
Completion: 0.5

###

System: Haemophilus parasuis
Experiment: in vitro susceptibility, MIC by mini broth dilution
Format: cell-based
Measurement Type: MIC values, Haemophilus parasuis (ug/mi)
Dear colleague, please return just the value in ug/mi, with no unit written.

For orientation, consider the following solved cases.
Prompt: Report the value of MIC values, Haemophilus parasuis obtained on Haemophilus parasuis for CCCN1C[C@H](C)[C@@H](O)[C@](C)(O)[C@@H](CC)OC(=O)[C@H](C)[C@@H](O[C@H]2C[C@@](C)(OC)[C@](O)(CNc3ccc(Cl)cc3C)[C@H](C)O2)[C@H](C)[C@@H](O[C@@H]2O[C@H](C)C[C@H](N(C)C)[C@H]2O)[C@](C)(O)C[C@H]1C .
Completion: 0.25

Prompt: Return reported MIC values, Haemophilus parasuis for target or system Haemophilus parasuis, item CC[C@H]1OC(=O)[C@H](C)[C@@H](O[C@H]2C[C@@](C)(OC)[C@](O)(CNc3ccc(Cl)nn3)[C@H](C)O2)[C@H](C)[C@@H](O[C@@H]2O[C@H](C)C[C@H](N(C)C)[C@H]2O)[C@](C)(O)C[C@@H](C)NC[C@H](C)[C@@H](O)[C@]1(C)O .
Completion: 0.25

Prompt: Look up and report MIC values, Haemophilus parasuis, with Haemophilus parasuis as system, for CC[C@H]1OC(=O)[C@H](C)[C@@H](O[C@H]2C[C@@](C)(OC)[C@](O)(CNC(C)C(C)(C)C)[C@H](C)O2)[C@H](C)[C@@H](O[C@@H]2O[C@H](C)C[C@H](N(C)C)[C@H]2O)[C@](C)(O)C[C@@H](C)NC[C@H](C)[C@@H](O)[C@]1(C)O (stereo partly shown)
Completion: 2

Continue with the next compound.
Prompt: // fetch MIC values, Haemophilus parasuis for CCCN1C[C@H](C)[C@@H](O)[C@](C)(O)[C@@H](CC)OC(=O)[C@H](C)[C@@H](O[C@H]2C[C@@](C)(OC)[C@](O)(CNCc3ccc(Cl)cc3)[C@H](C)O2)[C@H](C)[C@@H](O[C@@H]2O[C@H](C)C[C@H](N(C)C)[C@H]2O)[C@](C)(O)C[C@H]1C ; system: Haemophilus parasuis
Completion: 0.25

###

System: Haemophilus parasuis
Experiment: in vitro susceptibility, MIC by mini broth dilution
Format: cell-based
Measurement Type: MIC values, Haemophilus parasuis

Prompt: Identify MIC values, Haemophilus parasuis associated with the compound CCCN1C[C@H](C)[C@@H](O)[C@](C)(O)[C@@H](CC)OC(=O)[C@H](C)[C@@H](O[C@H]2C[C@@](C)(OC)[C@](O)(CNc3cc(F)ccc3[N+](=O)[O-])[C@H](C)O2)[C@H](C)[C@@H](O[C@@H]2O[C@H](C)C[C@H](N(C)C)[C@H]2O)[C@](C)(O)C[C@H]1C [syzx-226]
Completion: 4 ug/mi

Prompt: Please list MIC values, Haemophilus parasuis recorded for the compound CCCN1C[C@H](C)[C@@H](O)[C@](C)(O)[C@@H](CC)OC(=O)[C@H](C)[C@@H](O[C@H]2C[C@@](C)(OC)[C@](O)(Cn3ccnc3C)[C@H](C)O2)[C@H](C)[C@@H](O[C@@H]2O[C@H](C)C[C@H](N(C)C)[C@H]2O)[C@](C)(O)C[C@H]1C [syzx-238]
Completion: 1 ug/mi

Prompt: Tell me measured MIC values, Haemophilus parasuis for CCCN1C[C@H](C)[C@@H](O)[C@](C)(O)[C@@H](CC)OC(=O)[C@H](C)[C@@H](O[C@H]2C[C@@](C)(OC)[C@](O)(CNc3cc(Cl)nc(Cl)n3)[C@H](C)O2)[C@H](C)[C@@H](O[C@@H]2O[C@H](C)C[C@H](N(C)C)[C@H]2O)[C@](C)(O)C[C@H]1C [syzx-237] please.
Completion: 4 ug/mi

Prompt: Identify measured MIC values, Haemophilus parasuis associated with CCCN1C[C@H](C)[C@@H](O)[C@](C)(O)[C@@H](CC)OC(=O)[C@H](C)[C@@H](O[C@H]2C[C@@](C)(OC)[C@](O)(CNCCCC(OC)OC)[C@H](C)O2)[C@H](C)[C@@H](O[C@@H]2O[C@H](C)C[C@H](N(C)C)[C@H]2O)[C@](C)(O)C[C@H]1C [syzx-205]
Completion: 4 ug/mi

Prompt: Write down MIC values, Haemophilus parasuis measured for item CCCN1C[C@H](C)[C@@H](O)[C@](C)(O)[C@@H](CC)OC(=O)[C@H](C)[C@@H](O[C@H]2C[C@@](C)(OC)[C@](O)(CNN3CCCCC3)[C@H](C)O2)[C@H](C)[C@@H](O[C@@H]2O[C@H](C)C[C@H](N(C)C)[C@H]2O)[C@](C)(O)C[C@H]1C [syzx-206]
Completion: 0.25 ug/mi

Query compound follows.
Prompt: Return reported MIC values, Haemophilus parasuis. Input compound: CC[C@H]1OC(=O)[C@H](C)[C@@H](O[C@H]2C[C@@](C)(OC)[C@](O)(CNC(=O)C(F)(F)F)[C@H](C)O2)[C@H](C)[C@@H](O[C@@H]2O[C@H](C)C[C@H](N(C)C)[C@H]2O)[C@](C)(O)C[C@@H](C)NC[C@H](C)[C@@H](O)[C@]1(C)O [syzx-37]
Completion: 0.5 ug/mi
